systemUnderTest: Aurora-2 (Homo sapiens, UniProt O14965)
Sequence (O14965 whole entry): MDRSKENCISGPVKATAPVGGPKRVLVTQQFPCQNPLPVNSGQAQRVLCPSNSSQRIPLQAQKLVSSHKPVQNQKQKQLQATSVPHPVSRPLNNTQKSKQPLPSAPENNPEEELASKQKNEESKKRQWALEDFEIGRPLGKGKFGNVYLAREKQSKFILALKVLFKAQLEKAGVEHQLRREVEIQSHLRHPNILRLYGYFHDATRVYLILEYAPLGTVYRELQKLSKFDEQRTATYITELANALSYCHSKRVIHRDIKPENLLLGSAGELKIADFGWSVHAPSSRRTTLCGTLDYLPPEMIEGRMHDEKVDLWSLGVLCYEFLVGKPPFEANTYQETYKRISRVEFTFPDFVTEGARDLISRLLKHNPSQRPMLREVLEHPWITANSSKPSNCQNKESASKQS
reportedProperty: pIC50
Lab note — pIC50 values are minus log10 of concentrations in M.

GET /values?readout=pIC50&system=Aurora-2 (Homo sapiens, UniProt O14965)&item= CC(C)(NC(=O)c1cc2c(NC(=O)c3ccccc3NC(=O)c3ccc[nH]3)n[nH]c2s1)c1ccccc1F 7.92

The values you see were collected from patent US7943654B2.
